- target: FOXN4
- experimental-details: pooled miR-30 sensor sort-seq; sequence = guide strand; also: reference of the scale not given here
- measurement-context: shRNA
Measured sensor-assay potency score (higher = more potent) of individual entries
Form field (numeric): enter value without unit.

{"columns": ["sequence-content", "readout-value"],
 "data": [
  ["TTGAGATGAATGCACAGCCACG", -1.27],
  ["TTCAGAGACAGGTTGTGCCGCA", 0.475]
]}

// next entry
Using the record for TGAGTTTCGAATAATTCCTGAC , report its sensor-assay potency score (higher = more potent).
-0.212

---

- target: TNFAIP2
- experimental-details: pooled miR-30 sensor sort-seq; sequence = guide strand
- measurement-context: shRNA
reported-metric: sensor-assay potency score (higher = more potent)
Form field (numeric): enter value without unit.

{"columns": ["sequence-content", "readout-value"],
 "data": [
  ["TTCTGTCTTCCATTCCACCATT", -1.13],
  ["TCGGACATGTAAACAAACCAAG", -1.46]
]}

Using the record for TATCAAACACGCTAACTCCTAC , report its sensor-assay potency score (higher = more potent).
-0.68

Using the record for TATCTGTGAGCCCAAGTCCAGC , report its sensor-assay potency score (higher = more potent).
-1.63

---

- target: LANCL2
- experimental-details: pooled miR-30 sensor sort-seq; sequence = guide strand
- measurement-context: shRNA
reported-metric: sensor-assay potency score (higher = more potent)
Form field (numeric): enter value without unit.

Field: example entries. Status: answers known.
{"columns": ["sequence-content", "target", "readout-value"],
 "data": [
  ["TAATAGCTGACTCACACACGGT", "LANCL2", -0.857],
  ["AAGTTTTGTGACACATTCCTGG", "LANCL2", 0.068]
]}

Using the record for TATGAAATTATGAATGATCTTC , report its sensor-assay potency score (higher = more potent).
0.142

---

- target: ZNF517
- experimental-details: pooled miR-30 sensor sort-seq; sequence = guide strand
- measurement-context: shRNA
reported-metric: sensor-assay potency score (higher = more potent)
Form field (numeric): enter value without unit.

Using the record for TTTGGCAACAAGAAAGCCTAGT , report its sensor-assay potency score (higher = more potent).
0.561

---

- target: SEC11C
- experimental-details: pooled miR-30 sensor sort-seq; sequence = guide strand
- measurement-context: shRNA
reported-metric: sensor-assay potency score (higher = more potent)
Form field (numeric): enter value without unit.

Field: example entries. Status: answers known.
{"columns": ["sequence-content", "readout-value"],
 "data": [
  ["ATGAACTTTGATTACTCTGTGA", -0.369],
  ["TAGTCATTCATTATTATGGTGA", -0.647],
  ["TTACTCTGTGAACTATTGGAAT", -1.07]
]}

Using the record for TTTGATTACTCTGTGAACTATT , report its sensor-assay potency score (higher = more potent).
-0.483

Using the record for TTGGAATGTCTCGTCCTTCAAC , report its sensor-assay potency score (higher = more potent).
-1.07

---

Measured sensor-assay potency score (higher = more potent) of individual entries
- target: DTNBP1
- experimental-details: pooled miR-30 sensor sort-seq; sequence = guide strand
- measurement-context: shRNA

Using the record for TATTTTTCTTGTAATTCTCCAG , report its sensor-assay potency score (higher = more potent).
-0.412

---

- target: C2orf82
- experimental-details: pooled miR-30 sensor sort-seq; sequence = guide strand
- measurement-context: shRNA
reported-metric: sensor-assay potency score (higher = more potent)
Form field (numeric): enter value without unit.

{"columns": ["sequence-content", "target", "readout-value"],
 "data": [
  ["ATCGTCTGTGAGCACCGCAGGG", "C2orf82", -1.34],
  ["CTGTGGAACATCGTCTGTGAGC", "C2orf82", -2.1],
  ["TGGAACATCGTCTGTGAGCACC", "C2orf82", -1.29]
]}

Using the record for TCTCAGCGCGACGACCACGAGC , report its sensor-assay potency score (higher = more potent).
-1.5

---

- target: SGK1
- experimental-details: pooled miR-30 sensor sort-seq; sequence = guide strand
- measurement-context: shRNA
Think of 0.3 as a floor: if sensor-assay potency score (higher = more potent) stands on it or above, it is 1; beneath it, -1.

Example entries and their recorded answers appear below.
{"columns": ["sequence-content", "target", "group"],
 "data": [
  ["TTCTGTAAAACTTTGACTGCAT", "SGK1", 1],
  ["TTATTAATGAGATCATCCCAGT", "SGK1", -1],
  ["TTTGCTGAGAAGGACTTGGTGG", "SGK1", -1]
]}

Exam item: decide whether the reported sensor-assay potency score (higher = more potent) for TACAATTTGTCAGCAGTCTGGA is at least 0.3.
-1

Exam item: decide whether the reported sensor-assay potency score (higher = more potent) for TTTGACTGCATAGAACACTTCT is at least 0.3.
1

---

- target: CD40
- experimental-details: pooled miR-30 sensor sort-seq; sequence = guide strand
- measurement-context: shRNA
Measured sensor-assay potency score (higher = more potent) of individual entries
Form field (numeric): enter value without unit.

{"columns": ["sequence-content", "readout-value"],
 "data": [
  ["TATTGGTTGGCTTCTTGGCCAC", -0.723],
  ["TGGTTCTGGATGGACAGCGGTC", -1.56]
]}

Using the record for TTTTTCTCTGCATGCAGTGGGT , report its sensor-assay potency score (higher = more potent).
-0.914

---

- target: CBR1
- experimental-details: pooled miR-30 sensor sort-seq; sequence = guide strand
- measurement-context: shRNA
Think of -0.2 as a floor: if sensor-assay potency score (higher = more potent) stands on it or above, it is 1; beneath it, -1.

Example entries and their recorded answers appear below.
{"columns": ["sequence-content", "group"],
 "data": [
  ["TTGAATATGAAAGGGTGTGGGA", 1],
  ["ATTCTGTGCACACATCTCGGGT", -1],
  ["TTCAGGAGGATCTTGTCCCCTT", -1],
  ["TCAATTAGTAGTACATTAGTGA", 1],
  ["TTTTCATCGTCACTTCAGCTTG", -1]
]}

Exam item: decide whether the reported sensor-assay potency score (higher = more potent) for TAGTACATTAGTGAGTGCTAAT is at least -0.2.
-1

Exam item: decide whether the reported sensor-assay potency score (higher = more potent) for TATGACATTGTAAATGCCCTTT is at least -0.2.
-1

---

- target: LCE2C
- experimental-details: pooled miR-30 sensor sort-seq; sequence = guide strand
- measurement-context: shRNA
reported-metric: sensor-assay potency score (higher = more potent)
Form field (numeric): enter value without unit.

Field: example entries. Status: answers known.
{"columns": ["sequence-content", "target", "readout-value"],
 "data": [
  ["TCAGGGAGCAGCCACCAGCCCC", "LCE2C", -1.78],
  ["TTCACTCTCACAGCAGTCGGGG", "LCE2C", -0.831]
]}

// next entry
GET /values?readout=sensor-assay potency score (higher = more potent)&system=LCE2C&item= CTGCAGGGAAACATGGAGCTGG
-1.34

---

- target: ALOX12B
- experimental-details: pooled miR-30 sensor sort-seq; sequence = guide strand
- measurement-context: shRNA
reported-metric: sensor-assay potency score (higher = more potent)
Form field (numeric): enter value without unit.

Field: example entries. Status: answers known.
{"columns": ["sequence-content", "readout-value"],
 "data": [
  ["AATGCTGTTGATCTGGACGGTG", -0.387],
  ["TTTGCAGTCCAACAGGCCGCGG", -1.33],
  ["TAGCCATTCCACTCAGGCCGGT", -1.01]
]}

// next entry
GET /values?readout=sensor-assay potency score (higher = more potent)&system=ALOX12B&item= TCGCCAGTGGTAGAAGTCCTGC
-1.5

---

Measured sensor-assay potency score (higher = more potent) of individual entries
- target: ATP2B3
- experimental-details: pooled miR-30 sensor sort-seq; sequence = guide strand
- measurement-context: shRNA
Form field (numeric): enter value without unit.

Field: example entries. Status: answers known.
{"columns": ["sequence-content", "readout-value"],
 "data": [
  ["TTGATCAGAAACTCGGGCGTGG", 0.126],
  ["TTTCTTGACAGAGTAAGCTAAG", -0.513],
  ["TTAAACAAGGACATCAGGGAAC", -0.472]
]}

Using the record for TTGAAGAACACAAAGACCCTCA , report its sensor-assay potency score (higher = more potent).
0.724

---

- target: ETS1
- experimental-details: pooled miR-30 sensor sort-seq; sequence = guide strand
- measurement-context: shRNA
Measured sensor-assay potency score (higher = more potent) of individual entries
Form field (numeric): enter value without unit.

{"columns": ["sequence-content", "readout-value"],
 "data": [
  ["TTTCTTTGCTGCTTGGAGTTAA", -0.637],
  ["TTTTCCGTCTTGATGATGGTGA", -0.268]
]}

// next entry
Using the record for TGAGACATCATTTCTTTGCTGC , report its sensor-assay potency score (higher = more potent).
0.679
